measurementTarget: TrkA (Homo sapiens)
pIC50: −log10 of the molar value.
Where pIC50 equals or exceeds 8, the correct label is yes (1); where it does not, the label is no (0).

Here are 4 compounds together with their reported answers.
1) NC(=O)c1ccc(-c2cc(OC3CCCC3)c3c(N)n[nH]c3c2)cc1N1CCN(C2CC2)CC1 [Example 78]
no (0)
2) CNC(=O)c1ccc(-c2cc(OC(C)C(F)(F)F)c3c(N)n[nH]c3c2)cc1N1CCN(C2CC2)CC1 (stereo not shown) [Example 34]
no (0)
3) CC(Oc1cc(-c2ccc(C(N)=O)c(N3CCN(C4CC4)CC3)c2)cc2[nH]nc(N)c12)C(F)(F)F (stereo not shown) [Example 97]
no (0)
4) CC(=O)c1ccc(-c2cc(OC3CCOCC3)c3c(N)n[nH]c3c2)cc1N1CCN(C(=O)C2CC2)CC1 [Example 20]
no (0)

Exercise: Confirm if pIC50 reported for the compound CNC(=O)c1ccc(-c2cc(O[C@@H](C)C(F)(F)F)c3c(N)n[nH]c3c2)cc1N1CCN(C(=O)C(C)(C)C)CC1 [Example 45] is 8 or above.
Solution: no (0)

Exercise: Confirm if pIC50 reported for the compound CC(Oc1cc(-c2ccc(C(N)=O)c(N3CCN(C(=O)C4CC4)CC3)c2)cc2[nH]nc(N)c12)C(F)(F)F (stereo not shown) [Example 103] is 8 or above.
Solution: no (0)

Exercise: Confirm if pIC50 reported for the compound CN1CCC(Oc2cc(-c3ccc(C(=O)NC4CC4)c(N4CCN(c5ccccc5)CC4)c3)cc3[nH]nc(N)c23)CC1 [Example 62] is 8 or above.
Solution: no (0)

Exercise: Confirm if pIC50 reported for the compound CNC(=O)c1ccc(-c2cc(OC(C)C(F)(F)F)c3c(N)n[nH]c3c2)cc1N1CCN(c2ccccc2)CC1 (stereo not shown) [Example 33] is 8 or above.
Solution: no (0)

---

measurementTarget: TrkC (Homo sapiens, UniProt Q16288)
Sequence (Q16288 32-839): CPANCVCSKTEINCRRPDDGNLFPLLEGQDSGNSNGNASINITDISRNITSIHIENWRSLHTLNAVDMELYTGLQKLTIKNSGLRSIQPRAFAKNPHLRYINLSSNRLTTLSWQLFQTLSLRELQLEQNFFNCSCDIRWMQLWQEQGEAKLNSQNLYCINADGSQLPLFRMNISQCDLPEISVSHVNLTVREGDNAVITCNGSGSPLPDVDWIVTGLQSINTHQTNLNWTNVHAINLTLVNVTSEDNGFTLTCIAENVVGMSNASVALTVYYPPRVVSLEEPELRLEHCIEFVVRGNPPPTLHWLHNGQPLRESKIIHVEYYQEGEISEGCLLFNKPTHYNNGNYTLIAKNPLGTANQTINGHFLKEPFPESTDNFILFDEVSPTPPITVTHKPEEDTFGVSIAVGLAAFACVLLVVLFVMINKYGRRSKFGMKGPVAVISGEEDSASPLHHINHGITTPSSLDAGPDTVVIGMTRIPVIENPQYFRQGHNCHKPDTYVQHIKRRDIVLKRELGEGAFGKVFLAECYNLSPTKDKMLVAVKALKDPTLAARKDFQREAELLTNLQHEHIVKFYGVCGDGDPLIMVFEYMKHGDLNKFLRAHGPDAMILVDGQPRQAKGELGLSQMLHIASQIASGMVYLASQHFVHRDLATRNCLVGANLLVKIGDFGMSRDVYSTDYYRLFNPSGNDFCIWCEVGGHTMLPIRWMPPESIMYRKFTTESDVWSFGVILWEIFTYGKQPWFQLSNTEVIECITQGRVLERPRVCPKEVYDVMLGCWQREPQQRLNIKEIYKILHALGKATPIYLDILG
Threshold-based label: IC50 under 100 nM gives T, IC50 not under 100 nM gives F.

Here are 4 compounds together with their reported answers.
1. CNC(=O)c1ccc(-c2cc(O[C@@H](C)C(F)(F)F)c3c(N)n[nH]c3c2)cc1N1CCN(C2CCCCC2)CC1
F
2. NC(=O)c1ccc(-c2cc(OC3CCCC3)c3c(N)n[nH]c3c2)cc1N1CCN(CCN2CCOCC2)CC1
F
3. NC(=O)c1ccc(-c2cc(OC3CCCC3)c3c(N)n[nH]c3c2)cc1N1CCN(c2ccccc2)CC1
T
4. CC(C)N1CCN(c2cc(-c3cc(OC(C)C(F)(F)F)c4c(N)n[nH]c4c3)ccc2C(N)=O)CC1 (stereo not shown)
F

Exercise: Quick check: does CNC(=O)c1ccc(-c2cc(OC3CCOCC3)c3c(C)n[nH]c3c2)cc1N1CCN(C(=O)OC(C)C)CC1 have IC50 under 100 nM?
Solution: T

Exercise: Quick check: does CNC(=O)c1ccc(-c2cc(OC3CCOCC3)c3c(N)n[nH]c3c2)cc1N1CCN(CC2CCCC2)CC1 have IC50 under 100 nM?
Solution: T

Exercise: Quick check: does NC(=O)c1ccc(-c2cc(OC3CCOCC3)c3c(N)n[nH]c3c2)cc1N1CCN(c2ccccc2)CC1 have IC50 under 100 nM?
Solution: T

---

Data export: log10 IC50 values recorded with TrkA (Homo sapiens).
Values reflect log10 of reported IC50 (nM).

1) CNC(=O)c1ccc(-c2cc(OC3CCOCC3)c3c(N)n[nH]c3c2)cc1N1CCN(C2CCCCC2)CC1 [Example 29]
1.99

The compound identified as CNC(=O)c1ccc(-c2cc(O[C@H](C)C(F)(F)F)c3c(N)n[nH]c3c2)cc1OCCOc1ccccc1 [Example 106] registered its log10 IC50 at 0.43

The compound identified as CNC(=O)c1ccc(-c2cc(O[C@H](C)C(F)(F)F)c3c(N)n[nH]c3c2)cc1N1CCN(c2ccccc2)CC1 [Example 48] registered its log10 IC50 at 1.59

The compound identified as CCCOC(=O)N1CCN(c2cc(-c3cc(OC4CCOCC4)c4c(C)n[nH]c4c3)ccc2C(=O)NC)CC1 [Example 135] registered its log10 IC50 at 0.92

The compound identified as CNC(=O)c1ccc(-c2cc(OC3CCOCC3)c3c(N)n[nH]c3c2)cc1N1CCN(C(=O)C2CC2)CC1 [Example 32] registered its log10 IC50 at 2.58

The compound identified as NC(=O)c1ccc(-c2cc(OC3CCCC3)c3c(N)n[nH]c3c2)cc1N1CCN(c2cccnc2)CC1 [Example 69] registered its log10 IC50 at 0.47

The compound identified as NC(=O)c1ccc(-c2ccc3c(N)n[nH]c3c2)cc1N1CCN(C2CCCCC2)CC1 [Example 85] registered its log10 IC50 at 3.35

---

measurementTarget: TrkA (Homo sapiens)
resultType: IC50 (nM)
Expressed in nM, but write only the number.

1) CNC(=O)c1ccc(-c2cc(O[C@H](C)C(F)(F)F)c3c(N)n[nH]c3c2)cc1N1CCN(C2CCC2)CC1
530

Measured IC50 (TrkA (Homo sapiens)), entry CCNC(=O)c1ccc(-c2cc(OC3CCOCC3)c3c(C)n[nH]c3c2)cc1N1CCN(c2ccccc2)CC1 : 32.8

Measured IC50 (TrkA (Homo sapiens)), entry Cc1n[nH]c2cc(-c3ccc(C(N)=O)c(N4CCN(C(=O)OC(C)C)CC4)c3)cc(OC3CCOCC3)c12 : 23.2

Measured IC50 (TrkA (Homo sapiens)), entry CNC(=O)c1ccc(-c2cc(OC3CCCC3)c3c(C)n[nH]c3c2)cc1N1CCN(C2CCCCC2)CC1 : 17.3

Measured IC50 (TrkA (Homo sapiens)), entry NC(=O)c1ccc(-c2cc(OC3CCOCC3)c3c(N)n[nH]c3c2)cc1N1CCN(CCOCCO)CC1 : 208

Measured IC50 (TrkA (Homo sapiens)), entry CNC(=O)c1ccc(-c2cc(O[C@H](C)C(F)(F)F)c3c(N)n[nH]c3c2)cc1N1CCN(c2ncccn2)CC1 : 27.2

Measured IC50 (TrkA (Homo sapiens)), entry NC(=O)c1ccc(-c2cc(OC3CCOCC3)c3c(N)n[nH]c3c2)cc1N1CCN(c2ccccc2)CC1 : 2.66

---

Data export: pIC50 values recorded with TrkC (Homo sapiens).
// pIC50: -log10(molar conc.)

Take a look at these entries with their results.
1) NC(=O)c1ccc(-c2cc(OC3CCOCC3)c3c(N)n[nH]c3c2)cc1N1CCN(c2cccnc2)CC1 [Example 2]
8.41
2) CNC(=O)c1ccc(-c2cc(OC3CCOCC3)c3c(N)n[nH]c3c2)cc1N1CCN(c2ccccc2)CC1 [Example 30]
8.82
3) CC(=O)Nc1ccc(-c2cc(OC3CCOCC3)c3c(C)n[nH]c3c2)cc1OCCOc1ccccc1 [Example 130]
8.82
4) NC(=O)c1ccc(-c2cc(OC3CCCC3)c3c(N)n[nH]c3c2)cc1N1CCN(c2cccnc2)CC1 [Example 69]
8.51

Next item in the queue.
Measured pIC50 (TrkC (Homo sapiens)), entry CC(C)(C)OC(=O)N1CCN(c2cc(-c3cc(OC4CCCC4)c4c(N)n[nH]c4c3)ccc2C(N)=O)CC1 [Example 73] : 8.45

---

Data export: pIC50 values recorded with TrkA (Homo sapiens, UniProt P04629).
Sequence (P04629 33-796): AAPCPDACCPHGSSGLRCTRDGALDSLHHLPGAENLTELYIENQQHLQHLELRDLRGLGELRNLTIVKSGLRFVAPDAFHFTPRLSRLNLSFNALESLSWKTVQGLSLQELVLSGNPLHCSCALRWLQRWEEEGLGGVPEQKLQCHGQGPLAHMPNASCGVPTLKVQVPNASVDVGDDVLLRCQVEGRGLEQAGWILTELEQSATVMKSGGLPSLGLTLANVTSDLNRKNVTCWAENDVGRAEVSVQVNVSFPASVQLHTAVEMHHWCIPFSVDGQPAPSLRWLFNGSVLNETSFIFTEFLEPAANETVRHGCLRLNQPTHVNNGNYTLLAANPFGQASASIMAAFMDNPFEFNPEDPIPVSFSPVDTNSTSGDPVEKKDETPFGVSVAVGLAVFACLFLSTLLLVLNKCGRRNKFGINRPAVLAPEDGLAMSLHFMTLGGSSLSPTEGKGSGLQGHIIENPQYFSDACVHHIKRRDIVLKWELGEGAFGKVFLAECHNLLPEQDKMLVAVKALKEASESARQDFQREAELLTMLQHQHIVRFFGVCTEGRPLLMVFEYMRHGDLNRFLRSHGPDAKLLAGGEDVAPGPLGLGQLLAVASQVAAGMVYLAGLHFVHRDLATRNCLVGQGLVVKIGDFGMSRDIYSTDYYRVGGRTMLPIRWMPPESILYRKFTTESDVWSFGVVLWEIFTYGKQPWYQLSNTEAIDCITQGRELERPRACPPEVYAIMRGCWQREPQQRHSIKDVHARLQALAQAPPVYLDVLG
// pIC50: -log10(molar conc.)

1. CNC(=O)c1ccc(-c2cc(OC3CCOCC3)c3c(N)n[nH]c3c2)cc1N1CCN(CC(F)F)CC1
7.42
2. CNC(=O)c1ccc(-c2cc(OC3CCOCC3)c3c(C)n[nH]c3c2)cc1N1CCN(C(=O)OCC(C)(C)C)CC1
7.24
3. C=CC(=O)Nc1ccc(-c2cc(OC3CCOCC3)c3c(C)n[nH]c3c2)cc1N1CCN(C2CCCCC2)CC1
7.33
4. CCNC(=O)c1ccc(-c2cc(OC3CCCC3)c3cn[nH]c3c2)cc1N1CCN(c2ccccc2)CC1
7.08
5. NC(=O)c1ccc(-c2cc(OC3CCCC3)c3c(N)n[nH]c3c2)cc1N1CCC(C(N)=O)CC1
6.66

The compound identified as NC(=O)c1ccc(-c2cc(OC3CCCC3)c3c(N)n[nH]c3c2)cc1N1CCN(CCN2CCOCC2)CC1 registered its pIC50 at 7.46

The compound identified as NC(=O)c1ccc(-c2cc(OC3CCOCC3)c3c(N)n[nH]c3c2)cc1N1CCN(CCN2CCOCC2)CC1 registered its pIC50 at 7.43

The compound identified as Cc1n[nH]c2cc(-c3ccc(C(=O)NC4CC4)c(N4CCN(c5ccccc5)CC4)c3)cc(OC3CCOCC3)c12 registered its pIC50 at 7.75

The compound identified as NC(=O)c1ccc(-c2ccc3c(N)n[nH]c3c2)cc1N1CCN(c2ccccc2)CC1 registered its pIC50 at 7.61
